Hello, the source for this data is paper PMC10668032, in case you need it.

Target: SIX1 homeodomain (reference allele) (human, UniProt Q15475 108-198)
Sequence: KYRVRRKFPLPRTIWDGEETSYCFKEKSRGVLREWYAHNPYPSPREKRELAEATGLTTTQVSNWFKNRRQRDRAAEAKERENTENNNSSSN
Test: universal protein binding microarray; Universal all-10-mer PBM (8x60K, AMADID 030236), 300 nM GST-tagged protein, Alexa Fluor 488 anti-GST; buffer, salt, pH and temperature not stated (as in Berger); high values mean tight binding
Details: protein: ivt; tags: N-terminal GST; dsDNA, one strand shown
Whole data set: some 33,000 sequences, median “e-score” near -0.053, cut for the highest 2% near 0.38. This is one part of a sample in which the highest values are shown more often than they occur.
Catalogue of sequences with associated binding signal
REPORTED METRIC: binding signal (E-score)

TATATCCA :: 0.335
CTCGATGA :: 0.165
GTAGATAC :: 0.289
TAATATAA :: 0.257
ACCGATCG :: 0.272
ACACCACA :: 0.328
ACCCGACA :: 0.239
ATACAGGG :: 0.295
GTAATATA :: 0.226
CAGATAGC :: 0.171
ACACCACC :: 0.293
ATCCCTGA :: 0.272
TAGATGGA :: 0.289
TATATCGA :: 0.387
ATAGCGGC :: 0.194
TCAGATGA :: 0.307
TGAAACCA :: 0.163
CACAATAC :: 0.31
CAGCGATA :: 0.359
TATCCAAA :: 0.297
TGACACCA :: 0.466
AAGCGATC :: 0.239
ATACCATA :: 0.394
GGGATTAC :: 0.167
ATCGATAC :: 0.446
TAGCGATA :: 0.38
ATATGGAT :: 0.371
GAGCGATA :: 0.344
ACTATACT :: 0.211
GTGTCGGA :: 0.322
AAGTATAT :: 0.184
AGGCGATA :: 0.357
ATACCACA :: 0.3
ACATTATC :: 0.165
ATAGATAC :: 0.393
ATCACTGA :: 0.243
ACACCATA :: 0.302
AATATCGA :: 0.241
ACCCTTCT :: 0.224
CTACCATA :: 0.167
GAGATCGA :: 0.271
CGGCTCAC :: 0.174
GATATCGA :: 0.42
AACGCATA :: 0.203
GAAATACC :: 0.185
GATAGGTA :: 0.325
